These data points were gathered from ChEMBL document CHEMBL1152843.

- Tested on: Escherichia coli
- PROTOCOL SUMMARY: Antibacterial activity against Escherichia coli MTCC 443 after 24 hrs by cup diffusion method
- Assay type: functional
- CONDITION DESCRIPTION: MTCC 443, 24 h
READOUT LABEL: MIC
Field note: include the unit after the figure.

Examples with answers:
COMPOUND | MIC
Cc1ccc(C2=NOC(Cc3ccc4c(c3)OCO4)CC2)cc1 (stereo not drawn) | 25 µg/mL
COc1ccc(C2=NOC(CCl)CC2)cc1 (stereo not drawn) | 20 µg/mL
Cc1ccc(C2=NOC(Cc3ccc4c(c3)OCO4)CC2)cc1C (stereo not drawn) | 30 µg/mL
COc1ccc(C2=NOC(CO)CC2)cc1OC (stereo not drawn) | 35 µg/mL
Cc1ccc(C2=NOC(C#N)CC2)cc1 (stereo not drawn) | 25 µg/mL

Please supply MIC for each of the following items, keeping them in order.
1. c1cc2c(cc1CC1CCC(c3ccc4c(c3)CCC4)=NO1)OCO2 (stereo not drawn)
2. CCOC(=O)C1CCC(c2ccc(OC)c(OC)c2)=NO1 (stereo not drawn)
3. Cc1ccc(C2=NOC(CCl)CC2)cc1C (stereo not drawn)

Response line:
25 µg/mL
30 µg/mL
20 µg/mL

Give measured MIC for every item shown.
1. COc1ccc(C2=NOC(Cc3ccc4c(c3)OCO4)CC2)cc1 (stereo not drawn)
2. CCOC(=O)C1CCC(c2ccc(OC)cc2)=NO1 (stereo not drawn)
3. Cc1ccc(C2=NOC(CCl)CC2)cc1 (stereo not drawn)
4. Cc1ccc(C2=NOC(C#N)CC2)cc1C (stereo not drawn)

Response line:
["25 µg/mL", "35 µg/mL", "20 µg/mL", "25 µg/mL"]

What the record says about COc1ccc(C2=NOC(CCl)CC2)cc1OC (stereo not drawn) : MIC is 20 µg/mL

* * *

- Test system: Fusarium oxysporum
- PROTOCOL SUMMARY: Antifungal activity against Fusarium oxysporum at 20 ug after 48 hrs by cup diffusion method
- Format: functional
- CONDITION DESCRIPTION: read-out: IZ
READOUT LABEL: zone of inhibition at 20 µg/disc (mm)
One number for each entry, in mm.

Here is how some molecules turned out for zone of inhibition at 20 µg/disc.
MOLECULE | UNIT ABBREV | zone of inhibition at 20 µg/disc
COc1ccc(C2=NOC(CCl)CC2)cc1 (stereo unspecified) | mm | 29.7
Cc1ccc(C2=NOC(CO)CC2)cc1C (stereo unspecified) | mm | 19.8
CCOC(=O)C1CCC(c2ccc(OC)cc2)=NO1 (stereo unspecified) | mm | 30.7
Cc1ccc(C2=NOC(CO)CC2)cc1 (stereo unspecified) | mm | 19.8

Kindly give each listed record's zone of inhibition at 20 µg/disc.
1. COc1ccc(C2=NOC(CO)CC2)cc1 (stereo unspecified)
2. CCOC(=O)C1CCC(c2ccc(C)c(C)c2)=NO1 (stereo unspecified)

Response line:
19.5
19.8

* * *

- Test system: Staphylococcus aureus
- PROTOCOL SUMMARY: Antibacterial activity against Staphylococcus aureus MTCC 737 at 20 ug after 24 hrs by cup diffusion method
- Assay type: functional
- CONDITION DESCRIPTION: MTCC 737, 24 h, read-out: IZ
Assign zone of inhibition at 20 µg/disc to each entry below.
Answers are plain numbers, in mm.

Here is how some compounds turned out for zone of inhibition at 20 µg/disc.
COMPOUND | RECORDED NUMBER
COc1ccc(C2=NOC(CO)CC2)cc1OC (stereo not given) | 7.66
COc1ccc(C2=NOC(CO)CC2)cc1 (stereo not given) | 10.8
CCOC(=O)C1CCC(c2ccc(OC)c(OC)c2)=NO1 (stereo not given) | 16.5
COc1ccc(C2=NOC(C#N)CC2)cc1OC (stereo not given) | 15.5

We next turn to a different compound, shown below.
Entry Cc1ccc(C2=NOC(Cc3ccc4c(c3)OCO4)CC2)cc1C (stereo not given) , Staphylococcus aureus data, zone of inhibition at 20 µg/disc value: 21.3

* * *

- System: Klebsiella pneumoniae
- PROTOCOL SUMMARY: Antibacterial activity against Klebsiella pneumoniae […] at 20 ug after 24 hrs by cup diffusion method
- Format: functional
- CONDITION DESCRIPTION: read-out: IZ
READOUT LABEL: zone of inhibition at 20 µg/disc (mm)
Numbers only, in mm.

Take a look at these entries with their results.
MOLECULE | UNIT ABBREV | zone of inhibition at 20 µg/disc
COc1ccc(C2=NOC(CO)CC2)cc1OC (stereo not given) | mm | 14.5
COc1ccc(C2=NOC(CCl)CC2)cc1OC (stereo not given) | mm | 17
Cc1ccc(C2=NOC(CO)CC2)cc1C (stereo not given) | mm | 17.7
CC1(C)S[C@@H]2[C@H](NC(=O)Cc3ccccc3)C(=O)N2[C@H]1C(=O)O | mm | 0

Pending molecule:
# zone of inhibition at 20 µg/disc (molecule: COc1ccc(C2=NOC(CO)CC2)cc1 (stereo not given) ) is 15.5

* * *

- Test system: Staphylococcus aureus
- PROTOCOL SUMMARY: Antibacterial activity against Staphylococcus aureus MTCC 737 after 24 hrs by cup diffusion method
- Type: functional
- CONDITION DESCRIPTION: MTCC 737, 24 h
READOUT LABEL: MIC (µg/mL)
Give bare numbers, in µg/mL.

MOLECULE | MIC [µg/mL]
COc1ccc(C2=NOC(CO)CC2)cc1 (stereo not drawn) | 20
Cc1ccc(C2=NOC(CCl)CC2)cc1C (stereo not drawn) | 10
Cc1ccc(C2=NOC(C#N)CC2)cc1C (stereo not drawn) | 10
COc1ccc(C2=NOC(C#N)CC2)cc1 (stereo not drawn) | 10
Cc1ccc(C2=NOC(Cc3ccc4c(c3)OCO4)CC2)cc1 (stereo not drawn) | 15

Return reported MIC values for all items listed beneath this line.
1. CCOC(=O)C1CCC(c2ccc3c(c2)CCC3)=NO1 (stereo not drawn)
2. Cc1ccc(C2=NOC(CO)CC2)cc1 (stereo not drawn)
3. CCOC(=O)C1CCC(c2ccc(OC)c(OC)c2)=NO1 (stereo not drawn)
4. COc1ccc(C2=NOC(CCl)CC2)cc1OC (stereo not drawn)
5. COc1ccc(C2=NOC(CCl)CC2)cc1 (stereo not drawn)

Response line:
[20, 25, 15, 10, 10]

* * *

Give measured MIC for each item. Keep answers brief.
- Tested on: Staphylococcus aureus
- PROTOCOL SUMMARY: Antibacterial activity against Staphylococcus aureus MTCC 737 after 24 hrs by cup diffusion method
- Type: functional
- CONDITION DESCRIPTION: MTCC 737, 24 h
Answers are plain numbers, in µg/mL.

Dear colleague, could you please provide MIC for the molecules listed below?
1. Cc1ccc(C2=NOC(CO)CC2)cc1C (stereo not drawn)
2. CCOC(=O)C1CCC(c2ccc(OC)cc2)=NO1 (stereo not drawn)

Response line:
[15, 20]

* * *

- System: Staphylococcus aureus
- PROTOCOL SUMMARY: Antibacterial activity against Staphylococcus aureus MTCC 737 after 24 hrs by cup diffusion method
- Assay type: functional
- CONDITION DESCRIPTION: MTCC 737, 24 h
READOUT LABEL: MIC (µg/mL)
Give bare numbers, in µg/mL.

I have 5 compounds here; please give me MIC for each one.
1. OCC1CCC(c2ccc3c(c2)CCC3)=NO1 (stereo unspecified)
2. Cc1ccc(C2=NOC(CCl)CC2)cc1 (stereo unspecified)
3. Cc1ccc(C2=NOC(Cc3ccc4c(c3)OCO4)CC2)cc1C (stereo unspecified)
4. ClCC1CCC(c2ccc3c(c2)CCC3)=NO1 (stereo unspecified)
5. COc1ccc(C2=NOC(CO)CC2)cc1OC (stereo unspecified)

Response line:
20
10
15
10
20

// field: MIC; key: COc1ccc(C2=NOC(Cc3ccc4c(c3)OCO4)CC2)cc1 (stereo unspecified) ; value = 15
